# measuredTarget: 3R Shaker K channel (Drosophila melanogaster, UniProt P08510, A359R/M356R)
# Sequence (P08510 whole entry M356R/A359R): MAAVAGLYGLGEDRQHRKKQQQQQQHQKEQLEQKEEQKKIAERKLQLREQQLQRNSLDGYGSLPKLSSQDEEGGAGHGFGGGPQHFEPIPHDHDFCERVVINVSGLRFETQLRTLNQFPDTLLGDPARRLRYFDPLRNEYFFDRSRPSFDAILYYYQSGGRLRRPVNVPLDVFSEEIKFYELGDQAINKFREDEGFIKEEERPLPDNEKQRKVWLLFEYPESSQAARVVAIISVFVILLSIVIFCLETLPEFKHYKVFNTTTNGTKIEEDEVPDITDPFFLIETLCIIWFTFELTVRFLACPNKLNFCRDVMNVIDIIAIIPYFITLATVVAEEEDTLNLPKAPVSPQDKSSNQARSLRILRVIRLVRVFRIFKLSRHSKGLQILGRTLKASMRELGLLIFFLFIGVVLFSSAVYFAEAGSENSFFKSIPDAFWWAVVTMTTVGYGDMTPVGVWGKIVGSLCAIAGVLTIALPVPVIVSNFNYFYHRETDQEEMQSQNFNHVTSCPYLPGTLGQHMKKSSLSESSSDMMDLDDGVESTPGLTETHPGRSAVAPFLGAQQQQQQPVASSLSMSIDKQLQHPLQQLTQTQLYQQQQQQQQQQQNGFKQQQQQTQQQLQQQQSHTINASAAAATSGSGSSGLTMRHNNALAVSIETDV
# assayName: physchem
# Type: cell-based
# conditionContext: Table 1; 100 μM, pH 7.4, Xenopus oocytes
attributeMeasured: G(V) shift (mV)
Give just the number in mV; leave the unit off.

Known G(V) shift results, listed for orientation:
- CC(C)c1c(Cl)c(Cl)c2c(c1Cl)C(=NOCc1ccccc1)CC1C(C)(C(=O)O)CCCC21C (stereo not shown): −1.9
- CC(C)c1cc2c(cc1I)[C@@]1(C)CCC[C@@](C)(C(=O)O)C1CC2 (stereo partly shown): −9.0
- CON=C1C[C@H]2[C@](C)(C(=O)O)CCC[C@]2(C)c2ccc(C(C)C)cc21: −14.8

Shifting focus to the compound that follows.
Incoming: Indicate its recorded G(V) shift; the compound in question is C[C@]1(C(=O)O)CCC[C@]2(C)c3ccccc3CCC12 (stereo partly shown)
Outgoing: −5.1

----------
# measuredTarget: 3R Shaker K channel (Drosophila melanogaster, UniProt P08510, A359R/M356R)
# assayName: physchem
# Type: cell-based
# conditionContext: Table 2; K channel expressed in Xenopus oocytes
attributeMeasured: Effects on K channel Mean ± SEM
Please give the number followed by its unit.

- C[C@@]1(C(=O)O)CCC[C@]2(C)c3cc(Cl)c(Cl)c(Cl)c3CCC12 (stereo partly drawn): −31.6 ± 2.1 mV
- CC(C)c1ccc2c(c1)C(C(=O)O)CC1[C@](C)(C(=O)O)CCC[C@]21C (stereo partly drawn): −1.2 ± 0.6 mV
- CO/N=C1\CC2[C@](C)(C(=O)O)CCC[C@]2(C)c2cc(Cl)c(C(C)C)cc21 (stereo partly drawn): −28.1 ± 1.7 mV
- C=CCO/N=C1\CC2[C@](C)(C(=O)O)CCC[C@]2(C)c2ccc(C(C)C)cc21 (stereo partly drawn): −17.8 ± 1.9 mV
- CC(C)c1ccc2c(c1Br)CCC1[C@](C)(C(=O)O)CCC[C@]21C (stereo partly drawn): −21.8 ± 0.8 mV

Shifting focus to the compound that follows.
Incoming: Indicate its recorded Effects on K channel Mean ± SEM; the compound in question is CO/N=C1\CC2[C@](C)(C(=O)O)CCC[C@]2(C)c2cc(Br)c(C(C)C)cc21 (stereo partly drawn)
Outgoing: −30.0 ± 1.8 mV

----------
# measuredTarget: 3R Shaker K channel (Drosophila melanogaster, UniProt P08510, A359R/M356R)
# assayName: physchem
# Type: cell-based
# conditionContext: Table 1; 100 μM, pH 7.4, Xenopus oocytes
attributeMeasured: G(V) shift (mV)
Give just the number in mV; leave the unit off.

Known G(V) shift results, listed for orientation:
- CC(C)c1cc2c(cc1F)[C@@]1(C)CCC[C@@](C)(C(=O)O)[C@@H]1CC2=O: −4.4
- C=CCO/N=C1\CC2[C@](C)(C(=O)O)CCC[C@]2(C)c2ccc(C(C)C)c(Cl)c21 (some centres unmarked): −16.1
- C=CCO/N=C1\CC2[C@](C)(C(=O)O)CCC[C@]2(C)c2cc(I)c(C(C)C)cc21 (some centres unmarked): −19.3
- CON=C1C[C@H]2[C@](C)(C(=O)O)CCC[C@]2(C)c2cc(Cl)c(C(C)C)c(Cl)c21: −22.1
- CC(C)c1cc2c(cc1F)[C@@]1(C)CCC[C@@](C)(C(=O)O)[C@@H]1CC2: −10.4

Incoming: Enter G(V) shift (test system 3R Shaker K channel (Drosophila melanogaster, UniProt P08510, A359R/M356R)) for C=CCO/N=C1\CC2[C@](C)(C(=O)O)CCC[C@]2(C)c2cc(Cl)c(C(C)C)cc21 (some centres unmarked)
Outgoing: −26.7

Incoming: Enter G(V) shift (test system 3R Shaker K channel (Drosophila melanogaster, UniProt P08510, A359R/M356R)) for CC(C)c1cc2c(cc1C1CC1)[C@@]1(C)CCC[C@@](C)(C(=O)O)C1CC2=O (some centres unmarked)
Outgoing: −6.7

Incoming: Enter G(V) shift (test system 3R Shaker K channel (Drosophila melanogaster, UniProt P08510, A359R/M356R)) for C=Cc1c(C(C)C)ccc2c1CCC1[C@](C)(C(=O)O)CCC[C@]21C (some centres unmarked)
Outgoing: −7.7
